- TARGET SYSTEM: Adenosine receptor A1 (Rattus norvegicus) (UniProt P25099)
- Sequence (P25099 whole entry): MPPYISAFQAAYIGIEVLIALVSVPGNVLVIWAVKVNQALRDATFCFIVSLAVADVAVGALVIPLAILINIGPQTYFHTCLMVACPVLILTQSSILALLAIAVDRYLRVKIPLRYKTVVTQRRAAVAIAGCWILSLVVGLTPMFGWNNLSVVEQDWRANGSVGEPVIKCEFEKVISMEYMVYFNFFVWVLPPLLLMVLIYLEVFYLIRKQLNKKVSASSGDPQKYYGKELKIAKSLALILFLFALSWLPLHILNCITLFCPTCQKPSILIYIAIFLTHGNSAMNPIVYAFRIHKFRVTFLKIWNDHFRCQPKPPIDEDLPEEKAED
- PROTOCOL DESCRIPTION: Displacement of [3H]DPCPX from adenosine A1 receptor in rat forebrain membrane assessed as fraction of receptor bound radioligand at 100 ug/mL
- Type: cell membranes
Please assign NO whenever Activity is at or above 50%, and YES whenever it is below.

# input is_below(Activity, 50%) for O=c1cc(-c2ccc(O)cc2)oc2c([C@@H]3O[C@H](CO)[C@@H](O)[C@H](O)[C@H]3O)c(O)cc(O)c12 ?
# output NO

# input is_below(Activity, 50%) for O=c1c(O)c(-c2ccc(O)cc2)oc2cc(O)cc(O)c12 ?
# output YES

# input is_below(Activity, 50%) for COc1cc2oc(-c3ccc(O)cc3)cc(=O)c2c(O)c1OC ?
# output YES

# input is_below(Activity, 50%) for COc1cc(-c2cc(=O)c3c(O)cc(O[C@@H]4O[C@H](CO)[C@@H](O)[C@H](O)[C@H]4O[C@@H]4O[C@@H](C)[C@H](O)[C@@H](O)[C@H]4O)cc3o2)ccc1O ?
# output NO

# input is_below(Activity, 50%) for COc1cc2oc(-c3ccc(O[C@@H]4O[C@H](CO)[C@@H](O)[C@H](O)[C@H]4O)cc3)cc(=O)c2c(O)c1OC [CIRSIMARIN] ?
# output YES

# input is_below(Activity, 50%) for O=c1c(O[C@@H]2O[C@H](CO)[C@H](O)[C@H](O)[C@H]2O)c(-c2ccc(O)c(O)c2)oc2cc(O)cc(O)c12 ?
# output NO

# input is_below(Activity, 50%) for C[C@@H]1O[C@@H](OC[C@H]2O[C@@H](Oc3c(-c4ccc(O)cc4)oc4cc(O)cc(O)c4c3=O)[C@H](O)[C@@H](O)[C@@H]2O)[C@H](O)[C@H](O)[C@H]1O ?
# output YES

# input is_below(Activity, 50%) for O=c1c(O)c(-c2cc(O)c(O)c(O)c2)oc2cc(O)cc(O)c12 ?
# output YES

# input is_below(Activity, 50%) for C[C@@H]1O[C@@H](OC[C@H]2O[C@@H](Oc3c(-c4ccc(O)c(O)c4)oc4cc(O)cc(O)c4c3=O)[C@H](O)[C@@H](O)[C@@H]2O)[C@H](O)[C@H](O)[C@H]1O ?
# output NO

# input is_below(Activity, 50%) for C[C@@H]1O[C@@H](Oc2c(-c3ccc(O)c(O)c3)oc3cc(O)cc(O)c3c2=O)[C@H](O)[C@H](O)[C@H]1O (stereo in doubt; 8) ?
# output NO
